- test name: in vivo
- stated conditions: rat, iv
Where no end group is shown, it is not given here.
parameter: half-life

Task: Recorded half-life of DDDDK [D4 K, Asp-Asp-Asp-Asp-Lys] , please.
Result: ~15 min

FYI, the data here is from patent US5356781A.
